target: Rat A2 adenosine receptor; test: Affinity for A2 adenosine receptor isolated from rats; settings: rat A2 adenosine receptors; read-out: Ki for Rat A2 Receptors (printed K1)
MEASURE_NAME: Ki (nM)
Express your answer in nM, writing the number without its unit.

Entry under test: NCCNC(=O)Cc1ccc(NC(=O)Cc2ccc(Nc3ncnc4c3ncn4[C@@H]3O[C@H](CO)[C@@H](O)[C@H]3O)cc2)cc1 [ADAC] . Its Ki was 210
